Entry source: ChEMBL document CHEMBL3352486

system-name: Beta-ketoacyl-[acyl-carrier-protein] synthase III (Escherichia coli K-12)
Sequence (P0A6R0 whole entry): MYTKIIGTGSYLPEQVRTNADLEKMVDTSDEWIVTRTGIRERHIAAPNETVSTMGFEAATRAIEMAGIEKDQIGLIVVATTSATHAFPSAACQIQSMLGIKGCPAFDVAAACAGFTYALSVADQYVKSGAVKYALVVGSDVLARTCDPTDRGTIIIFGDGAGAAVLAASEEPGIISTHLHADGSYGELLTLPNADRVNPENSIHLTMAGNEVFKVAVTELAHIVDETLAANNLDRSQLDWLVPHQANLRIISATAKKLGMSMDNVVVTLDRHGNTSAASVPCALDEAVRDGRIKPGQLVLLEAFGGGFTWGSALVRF
Threshold 6 µM. IC50 below it: label 1. IC50 at it or above: label 0.

[
  {
    "molecule": "Cc1ncc([N+](=O)[O-])n1CCOc1ccc(/C=N/Nc2nc(-c3ccccc3)cs2)cc1",
    "group": "label 1"
  },
  {
    "molecule": "Cc1ncc([N+](=O)[O-])n1CCOc1ccc(/C=N/Nc2nc(-c3ccc(C(F)(F)F)cc3)cs2)cc1",
    "group": "label 0"
  },
  {
    "molecule": "COc1ccc(-c2csc(N/N=C/c3cccc(OCCn4c([N+](=O)[O-])cnc4C)c3)n2)cc1",
    "group": "label 0"
  },
  {
    "molecule": "NC[C@H]1O[C@H](O[C@H]2[C@H](O)[C@@H](O[C@H]3O[C@H](CO)[C@@H](O)[C@H](N)[C@H]3O)[C@H](N)C[C@@H]2N)[C@H](O)[C@@H](O)[C@@H]1O [KANAMYCIN]",
    "group": "label 0"
  },
  {
    "molecule": "Cc1ncc([N+](=O)[O-])n1CCOc1cccc(/C=N/Nc2nc(-c3ccccc3Br)cs2)c1",
    "group": "label 0"
  }
]

Shifting focus to the molecule that follows.
Please indicate whether the reported IC50 of `Cc1ncc([N+](=O)[O-])n1CCOc1ccc(/C=N/Nc2nc(-c3ccccc3Br)cs2)cc1` is strictly below 6 µM. label 1
